B1: library; a variant is named by its letters at N, in order (parent)
chain: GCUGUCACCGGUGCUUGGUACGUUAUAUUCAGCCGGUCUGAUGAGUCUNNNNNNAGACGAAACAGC

Variants of: B1
test_method_notes: FACS-Seq fitted mean relative fluorescence mCherry/BFP without ligand (log10 relative fluorescence); HEK293T overexpressing SLC46A1; higher = higher reporter protein expression
test_settings: without (6R,S)-folinic acid; ligand present: no
Item-by-item account of FACS-Seq fitted mean (log10)

Below: 2 variants and their reported FACS-Seq fitted mean (log10).
GCUGUCACCGGUGCUUGGUACGUUAUAUUCAGCCGGUCUGAUGAGUCUUAUCAAAGACGAAACAGC [UAUCAA]
0.142
GCUGUCACCGGUGCUUGGUACGUUAUAUUCAGCCGGUCUGAUGAGUCUAACCAAAGACGAAACAGC [AACCAA]
0.377

Q: Answer with the recorded FACS-Seq fitted mean (log10) for the variant listed here: GCUGUCACCGGUGCUUGGUACGUUAUAUUCAGCCGGUCUGAUGAGUCUUAACGGAGACGAAACAGC [UAACGG]
Result: 0.142

Q: Answer with the recorded FACS-Seq fitted mean (log10) for the variant listed here: GCUGUCACCGGUGCUUGGUACGUUAUAUUCAGCCGGUCUGAUGAGUCUAAUUUUAGACGAAACAGC [AAUUUU]
Result: 0.217

FYI, the data here is from the supplement of paper PMC6757056.
